- Species on record: Homo sapiens
- assayText: Cytotoxicity against human T-cell leukemia, CCRF-HSB-2, at concentration up to 100 ug/mL; NA means not active
- Type: functional
The source made the active and inactive calls. No cut-off for these calls is given here.
parameterMeasured: Activity

{"smilesString": "Nc1ccn([C@@H]2S[C@@H](CO)[C@H](O)[C@H]2O)c(=O)n1", "parameterMeasured": "Activity", "result": "inactive"}
{"smilesString": "Cc1cn([C@H]2S[C@@H](CO)[C@H](O)[C@H]2O)c(=O)[nH]c1=O", "parameterMeasured": "Activity", "result": "inactive"}
{"smilesString": "Cc1cn([C@@H]2S[C@@H](CO)[C@H](O)[C@H]2O)c(=O)[nH]c1=O", "parameterMeasured": "Activity", "result": "inactive"}
{"smilesString": "Nc1ccn([C@H]2S[C@@H](CO)[C@H](O)[C@H]2O)c(=O)n1", "parameterMeasured": "Activity", "result": "inactive"}
